Where do the numbers come from? From patent US20240116985A1.

biological target: full-length beta-Catenin (Uniprot ID P35222) (Homo sapiens); construct: 10 nM full-length beta-Catenin (Uniprot ID P35222); experiment: Fluorescence polarization IC50 (beta-catenin / 5FAM-TCF4 10-53 competition); assay type: binding; conditions: fluorescence polarization; read-out: beta-Catenin FP IC50
Sequence (P35222 whole entry): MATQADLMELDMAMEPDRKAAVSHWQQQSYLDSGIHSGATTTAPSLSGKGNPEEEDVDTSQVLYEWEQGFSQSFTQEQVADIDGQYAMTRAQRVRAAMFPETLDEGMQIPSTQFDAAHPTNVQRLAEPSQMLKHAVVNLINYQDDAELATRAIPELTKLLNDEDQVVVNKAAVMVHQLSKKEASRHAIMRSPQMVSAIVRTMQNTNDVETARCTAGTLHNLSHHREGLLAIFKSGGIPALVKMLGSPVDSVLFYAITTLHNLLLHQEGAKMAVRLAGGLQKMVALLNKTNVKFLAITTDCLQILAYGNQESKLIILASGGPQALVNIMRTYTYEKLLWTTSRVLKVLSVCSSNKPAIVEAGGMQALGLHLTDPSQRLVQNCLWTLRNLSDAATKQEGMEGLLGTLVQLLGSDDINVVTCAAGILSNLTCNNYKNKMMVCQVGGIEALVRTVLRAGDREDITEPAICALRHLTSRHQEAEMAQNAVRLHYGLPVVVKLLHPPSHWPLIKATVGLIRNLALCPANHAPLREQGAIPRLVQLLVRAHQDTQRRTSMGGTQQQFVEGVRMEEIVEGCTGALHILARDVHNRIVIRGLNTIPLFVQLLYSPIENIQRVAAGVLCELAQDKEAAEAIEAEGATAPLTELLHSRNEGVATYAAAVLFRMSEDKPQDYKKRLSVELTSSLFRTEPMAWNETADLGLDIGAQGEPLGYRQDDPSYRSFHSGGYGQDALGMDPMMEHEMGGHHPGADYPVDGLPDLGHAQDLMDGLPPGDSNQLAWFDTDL
Friendly reminder: IC50 below 0.03 µM is true, at or above is false.

Qu. Consider the compound CC(=O)N1CCC[C@]12CC=CCCCC1(CCCC=CCCCOC(=O)N3CC[C@](C(=O)N[C@@H](Cc4ccsc4)C(=O)N[C@@H](Cc4csc5ccccc45)C(=O)N[C@@H](CCC(N)=O)C(N)=O)(C3)NC(=O)[C@H](CC(C)C)NC(=O)[C@H](Cc3ccccc3)NC(=O)[C@H](C)NC(=O)[C@H](C)NC(=O)[C@H](CC(=O)O)NC(=O)[C@H](CC(=O)O)NC1=O)NC(=O)[C@H](CC(C)(C)C)NC(=O)[C@H](CC(=O)O)NC2=O (some centres unmarked) [I-2020] . Is its IC50 strictly less than 0.03 µM?
Ans. false

Qu. Consider the compound CC(=O)N1CCC[C@]12CC=CCCCC1(CCCC=CCCCOC(=O)N3CC[C@@](C(=O)N[C@@H](Cc4ccsc4)C(=O)N[C@@H](Cc4csc5ccccc45)C(=O)N[C@@H](CCS(C)(=O)=O)C(N)=O)(C3)NC(=O)[C@H](CC(C)C)NC(=O)[C@H](Cc3ccccc3)NC(=O)[C@H](C)NC(=O)[C@H](C)NC(=O)[C@H](Cc3cccc(C(=O)O)c3)NC(=O)[C@H](CC(=O)O)NC1=O)NC(=O)[C@H](CC(C)(C)C)NC(=O)[C@H](CC(=O)O)NC2=O (some centres unmarked) . Is its IC50 strictly less than 0.03 µM?
Ans. true

Qu. Consider the compound CC(=O)N1CCC[C@]12CC=CCCCC1(CCCC=CCCCOC(=O)N3CC[C@@](C(=O)N[C@@H](Cc4ccccc4C#N)C(=O)N[C@@H](Cc4csc5ccccc45)C(=O)N[C@@H](CCC(N)=O)C(N)=O)(C3)NC(=O)[C@H](CC(C)C)NC(=O)[C@H](Cc3ccccc3)NC(=O)[C@H](C)NC(=O)[C@H](C)NC(=O)[C@H](CN(CC(=O)O)CC(F)(F)F)NC(=O)[C@H](CC(=O)O)NC1=O)NC(=O)[C@H](CC(C)(C)C)NC(=O)[C@H](CC(=O)O)NC2=O (some centres unmarked) . Is its IC50 strictly less than 0.03 µM?
Ans. true

Qu. Consider the compound CC(=O)N1CCC[C@]12CC=CCCCC1(CCCC=CCCCOC(=O)N3CC[C@@](C(=O)N[C@@H](Cc4ccccc4C(F)(F)F)C(=O)N[C@@H](Cc4csc5ccccc45)C(=O)N[C@@H](CCC(N)=O)C(N)=O)(C3)NC(=O)[C@H](CC(C)C)NC(=O)[C@H](Cc3ccccc3)NC(=O)[C@H](C)NC(=O)[C@H](C)NC(=O)[C@H](Cc3cc(C(=O)O)cc(C(C)C)c3)NC(=O)[C@H](CC(=O)O)NC1=O)NC(=O)[C@H](CC(C)(C)C)NC(=O)[C@H](CC(=O)O)NC2=O (some centres unmarked) . Is its IC50 strictly less than 0.03 µM?
Ans. false

Qu. Consider the compound CC(=O)N1CCC[C@]12CC=CCCCC1(CCCC=CCCCOC(=O)N3CC[C@@](C(=O)N[C@@H](Cc4ccccc4C(F)(F)F)C(=O)N[C@@H](Cc4csc5ccccc45)C(=O)N[C@@H](CCCN4CCC(F)(F)CC4)C(N)=O)(C3)NC(=O)[C@H](CC(C)C)NC(=O)[C@H](Cc3ccccc3)NC(=O)[C@H](C)NC(=O)[C@H](C)NC(=O)[C@H](Cc3cccc(C(=O)O)c3)NC(=O)[C@H](CC(=O)O)NC1=O)NC(=O)[C@H](CC(C)(C)C)NC(=O)[C@H](CC(=O)O)NC2=O (some centres unmarked) . Is its IC50 strictly less than 0.03 µM?
Ans. false
